B1: RTN2 (parent)
chain: SERPLEDLRLRLDHLGWVARGTGS

variants of: B1; assay: protein stability index of a GFP-peptide fusion (GPS, HEK-293T) (PSI 1-6); higher = more stable; settings: c terminus: a fixed tail appended;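 note: lentivirally expressed fusions sorted by FACS into six bins by GFP to DsRed ratio, PSI derived from sequencing read proportions per bin multiplied by bin number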
Each record gets a class by protein stability index: lower level: < 2; middle level: ≥ 2 and < 3; upper level: ≥ 3

{"columns": ["record_sequence", "assigned_category"],
 "data": [
  ["SERPLEDWRLRLDHLGWVARGTGS [L8W]", "lower level"]
]}

Sort SSRPLEDLRLRLDHLGWVARGTGS [E2S] into one of the categories.
middle level

Sort SERPLEDVRLRLDHLGWVARGTGS [L8V] into one of the categories.
lower level

Sort SERPLEDLRLRPDHLGWVARGTGS [L12P] into one of the categories.
middle level
